For each record, write down the corresponding Fh at 1 µM.
Assay: Metabolic stability in Han Wistar rat hepatocytes using well-stirred liver model assessed as maximum bioavailability at 1 uM measured for 2 to 90 mins by LC-MS/MS analysis
Format: ADME, Hepatocyte
Details: time 2-90 min, route po, read-out: Fmax
Give a bare numeral; the unit % is implied.

Fh at 1 µM lookup needed for `Nc1nc(NC2CC2)cc(-c2cccc(Cl)c2Cl)n1` , thanks.
54

Thanks! And `CCNC(=O)c1cc2c(N3CCOC[C@@H]3C)ccnc2[nH]1` ?
87

* * *

Test: Metabolic stability in Han Wistar rat hepatocytes using well-stirred liver model assessed as clearance at 1 uM measured for 2 to 90 mins by LC-MS/MS analysis
Assay type: ADME, cell-based, Hepatocyte
Conditions: time 2-90 min
Value Kind: CLhep predicted at 1 µM

So what does the record say about CLhep predicted at 1 µM for `Nc1nc(NC2CC2)cc(-c2cccc(Cl)c2Cl)n1` ?
32 mL/min/kg

Also, `CCNC(=O)c1cc2c(N3CCOC[C@@H]3C)ccnc2[nH]1` please.
9 mL/min/kg

* * *

Assay: Distribution coefficient, logD of compound at pH 7.5 by HPLC analysis
Assay type: physicochemical
Conditions: octanol/water
Value Kind: logD
I'd appreciate a reply containing only the number, no unit.

Reported logD for `Nc1nc(NC2CC2)cc(-c2cccc(Cl)c2Cl)n1` : what is it?
2.5

Next entry: `CCNC(=O)c1cc2c(N3CCOC[C@@H]3C)ccnc2[nH]1`
1.6

* * *

Assay: Cytotoxicity against HMEC cells assessed as cell growth inhibition incubated for 144 hrs by alamarblue staining based assay
Format: toxicity
Settings: human
Value Kind: GI50 at 144 h (µM)
# output: bare number, implied unit µM

State the recorded GI50 at 144 h for this entry: `Nc1nc(NC2CC2)cc(-c2cccc(Cl)c2Cl)n1`
3.2

* * *

Assay: Aqueous solubility of compound in pH 6.5
Type: physicochemical
Settings: buffer
Value Kind: solubility (µg/mL)
# number only, unit µg/mL dropped from output

Can you share its solubility? I mean this compound: `Nc1nc(NC2CC2)cc(-c2cccc(Cl)c2Cl)n1`
38

Subsequent entry: `CCNC(=O)c1cc2c(N3CCOC[C@@H]3C)ccnc2[nH]1`
288

* * *

Assay: Metabolic stability in human liver microsomes assessed as maximum bioavailability at 1 uM measured for 2 to 60 mins by LC-MS/MS analysis
Type: ADME, Microsome
Conditions: time 2-60 min, read-out: Fmax
Value Kind: Fh at 1 µM (%)
State just the number; it will be interpreted in %.

Look at this compound and give its reported Fh at 1 µM. `Nc1nc(NC2CC2)cc(-c2cccc(Cl)c2Cl)n1`
51

One more compound: `CCNC(=O)c1cc2c(N3CCOC[C@@H]3C)ccnc2[nH]1`
78
